# System: FNCP-21 HIV-1 IIIB
# protocol.summary: Phenotypic analysis of resistant variants in C8166
# Assay type: cell-based
# condition.details: Human immunodeficiency virus 1; C8166, FNC-selected HIV-1IIIB at P-21
pEC50: −log10 of the molar value.
endpoint.label: pEC50

> print(dat)
                                   compound  endpoint.label  experimental.value
1  Nc1ccn([C@@H]2CS[C@H](CO)O2)c(=O)n1 [3TC, lamivudine, reference compound]           pEC50                3.91
2  Cc1cn([C@H]2C[C@H](N=[N+]=[N-])[C@@H](CO)O2)c(=O)[nH]c1=O [AZT, zidovudine]           pEC50                7.91
3  [N-]=[N+]=N[C@]1(CO)O[C@@H](n2ccc(N)nc2=O)[C@@H](F)[C@@H]1O [FNC, 2′-deoxy-2′-β-fluoro-4′-azidocytidine]           pEC50                7.09

====

# Tested on: HIV-1KM018
# protocol.summary: Anti-HIV activity in vitro, PBMC
# Format: cell-based
# condition.details: Human immunodeficiency virus 1, PBMC, read-out: EC50s
# Procedure: C8166 cells were infected with different HIV-1 or HIV-2 laboratory strains and resistant strains at different serial concentration compounds with multiplicity of infection (MOI) of 0.075∼0.6. PHA-stimulated PBMCs were incubated with different clinical strains in RPMI-1640 (with 10% FBS, 50 U/ml IL-2 and 2 µg/ml polybrene) at MOI of 0.1. After infection at 37°C in 5% CO2 for 2 hours, C8166 cells were washed three times to remove free viruses and re-suspended by RPMI-1640 (with 10% FBS). […]
pEC50: −log10 of the molar value.
endpoint.label: pEC50

> print(dat)
                                   molecule  experimental.value
1  Cc1cn([C@H]2C[C@H](N=[N+]=[N-])[C@@H](CO)O2)c(=O)[nH]c1=O [AZT, zidovudine]                6.32

====

# Tested on: HIV-2
# protocol.summary: Anti-HIV activity in vitro, summary over HIV-2 strains
# Type: cell-based
# condition.details: Human immunodeficiency virus 2; range over HIV-2 strains; read-out: EC50s on HIV-2
endpoint.label: EC50

> print(dat)
                                   compound  experimental.value
1  [N-]=[N+]=N[C@]1(CO)O[C@@H](n2ccc(N)nc2=O)[C@@H](F)[C@@H]1O [FNC, 2′-deoxy-2′-β-fluoro-4′-azidocytidine]   0.018 to 0.025 nM

====

# Test system: HIV-1_74V
# protocol.summary: Anti-HIV activity in vitro, C8166
# Assay type: cell-based
# condition.details: Human immunodeficiency virus 1, subtype B, NRTI-resistant
pEC50: −log10 of the molar value.
Listing of recorded pEC50 by entry.
endpoint.label: pEC50

> print(dat)
                                   compound  endpoint.label  experimental.value
1  Nc1ccn([C@@H]2CS[C@H](CO)O2)c(=O)n1 [3TC, lamivudine, reference compound]           pEC50                6.61
2  [N-]=[N+]=N[C@]1(CO)O[C@@H](n2ccc(N)nc2=O)[C@@H](F)[C@@H]1O           pEC50                9.96

====

Listing of recorded EC50 by entry.
# Tested on: pNL4-3 gp41 (36G) V38A/N42T
# Format: cell-based, HIV-1
# condition.details: C8166, pNL4-3 gp41 (36G) V38A/N42T, subtype B, FI-resistant
endpoint.label: EC50 (nM)

> print(dat)
                                   molecule  endpoint.label  unit.annotation  experimental.value
1  [N-]=[N+]=N[C@]1(CO)O[C@@H](n2ccc(N)nc2=O)[C@@H](F)[C@@H]1O [FNC, 2′-deoxy-2′-β-fluoro-4′-azidocytidine]            EC50               nM                0.36
2  Nc1ccn([C@@H]2CS[C@H](CO)O2)c(=O)n1 [3TC, lamivudine, reference compound]            EC50               nM                 386
